Ref: BindingDB's records for doi:10.1007/s10822-022-00478-x

Molecular target: cAMP and cAMP-inhibited cGMP 3',5'-cyclic phosphodiesterase 10A (Homo sapiens, UniProt Q9Y233)

# molecule, readout unit, IC50
measured = [
    ("COc1nc(OCc2nc(-c3ccccc3)cn2C)nc2ccc(Cl)cc12 [Roche-Dataset for PDE10A, Compound 198]", "nM", 15),
    ("Cc1ncc(C)n2nc(/C=C/c3nc(N4CC[C@@H](C)[C@H]4C)nn3C)nc12 [Roche-Dataset for PDE10A, Compound 1115]", "nM", 32),
    ("CCc1nc(C)c(C(=O)Nc2cc3nc(-c4ccccc4)[nH]c3cc2C(=O)O)o1 [Roche-Dataset for PDE10A, Compound 424]", "nM", 1340),
    ("CCOC(=O)c1cnn(C)c1C(=O)Nc1ccn2nc(-c3cccnc3)nc2c1 [Roche-Dataset for PDE10A, Compound 268]", "nM", 34),
    ("O=C(Nc1cccc(N2CCOCC2)c1)c1nc(C2CC2)cnc1Nc1cncnc1 [Roche-Dataset for PDE10A, Compound 812]", "nM", 13),
    ("Cc1nc2ccccc2nc1OCc1csc(N2CCCC2)n1 [Roche-Dataset for PDE10A, Compound 1025]", "nM", 65),
    ("O=C(NCc1cc(F)cc(F)c1)c1nc(C2CC2)cnc1Nc1cncnc1 [Roche-Dataset for PDE10A, Compound 783]", "nM", 1060),
]
